Data origin: patent US11124523B2

Target: UniProt:P08684
Sequence (P08684 whole entry): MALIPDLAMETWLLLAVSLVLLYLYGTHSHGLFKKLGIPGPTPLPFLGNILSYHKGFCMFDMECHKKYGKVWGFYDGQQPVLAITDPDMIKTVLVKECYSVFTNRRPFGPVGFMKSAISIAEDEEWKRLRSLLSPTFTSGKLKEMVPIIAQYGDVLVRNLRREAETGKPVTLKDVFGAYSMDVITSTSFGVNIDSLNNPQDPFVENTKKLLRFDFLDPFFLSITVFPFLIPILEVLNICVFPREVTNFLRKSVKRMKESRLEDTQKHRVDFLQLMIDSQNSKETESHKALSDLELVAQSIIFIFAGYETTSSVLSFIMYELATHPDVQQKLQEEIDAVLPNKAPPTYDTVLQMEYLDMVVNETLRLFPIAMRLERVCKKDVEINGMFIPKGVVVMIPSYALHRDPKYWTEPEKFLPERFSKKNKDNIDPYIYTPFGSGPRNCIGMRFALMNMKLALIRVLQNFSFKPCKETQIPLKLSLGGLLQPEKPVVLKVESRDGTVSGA
Test: Inhibition of cytochrome P450 isoenzymes, CYP3A4
Type: in vitro ADME
Conditions: >50 μM: inhibitory effect less than 50% at 50 μM; read-out: CYP 3A4 IC50
pIC50: −log10 of the molar value. Counter-ions that a name gives are not always drawn.
Would you mind telling me the reported pIC50 of each entry?

// Fc1cc(Cl)cc(CNCC[C@@]2(c3ccccn3)CCO[C@]3(CCOC3)C2)c1 [(+)-18] : pIC50 value = < 4.30

// Fc1ccc([C@]2(CCNCc3cccc(F)c3)CCO[C@]3(CCOC3)C2)nc1 [Hydrochloride Salt of (+)-23] : pIC50 value = < 4.30

// Cc1cccc(CNCC[C@@]2(c3ccc(F)cn3)CCO[C@]3(CCOC3)C2)c1 [Hydrochloride Salt of (+)-22] : pIC50 value = < 4.30

// Cc1cccc(CNCC[C@@]2(c3ccccn3)CCO[C@]3(CCOC3)C2)c1 [(+)-9] : pIC50 value = 4.66

// Fc1ccc([C@]2(CCNCc3cccc(Cl)c3)CCO[C@]3(CCOC3)C2)nc1 [(+)-16] : pIC50 value = 4.39

// c1ccc([C@]2(CCNCc3scc4c3CCC4)CCO[C@]3(CCOC3)C2)nc1 [(+)-2] : pIC50 value = < 4.30

// Clc1cccc(CNCC[C@@]2(c3ccccn3)CCO[C@]3(CCOC3)C2)c1 [(+)-8] : pIC50 value = < 4.30
